Ref: PubChem BioAssay AID743417

# Tested on: Clone20 osteoblast Shn3 3'UTR firefly luciferase, 24 h
# Experimental Details: Shn3 3'UTR reporter inhibitors, dose response, cell-based, Clone20 osteoblasts, luminescence, dry powder, set 2 (AID 743417)
Records with an inconclusive call do not appear. Active and inactive are the calls of the source.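 How the source made its calls: active means compounds lowering the luciferase signal with a fitted half-maximal dose at most twice their top valid dose (cut at about 30 µM in these data); inconclusive means flat fits with moderate signal loss, or poor fits; inactive means the rest.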
Outcome codes: active, inactive

Compound | Measurement Target | Assigned Class
COc1cc(OC)c(OC)cc1CNc1cc(C)ccc1OC | Clone20 osteoblast Shn3 3'UTR firefly luciferase, 24 h | active
COc1ccc(OC)c(NC(=O)c2cc(-c3cc(F)ccc3OCC3CCCO3)n[nH]2)c1 (stereo unspecified) | Clone20 osteoblast Shn3 3'UTR firefly luciferase, 24 h | active
Cn1c2c(c(=O)n(C)c1=O)C(C(F)(F)F)(C(F)(F)F)N=C(c1ccc(Cl)cc1)N2 | Clone20 osteoblast Shn3 3'UTR firefly luciferase, 24 h | active
CCOC(=O)c1c2c(n(-c3ccc(OC)cc3)c1C)C(=O)C(=O)c1ccccc1-2 | Clone20 osteoblast Shn3 3'UTR firefly luciferase, 24 h | active
O[C@@H]1CN(Cc2ccc(-n3cccn3)cc2)CC[C@H]1N1CCN(c2ccccc2F)CC1 | Clone20 osteoblast Shn3 3'UTR firefly luciferase, 24 h | active
CCn1c(=O)c(C(=O)Nc2nc3ccccc3[nH]2)c(O)c2ccccc21 | Clone20 osteoblast Shn3 3'UTR firefly luciferase, 24 h | active
S=C(NCCc1ccccc1)Nc1cccc2cnccc12 | Clone20 osteoblast Shn3 3'UTR firefly luciferase, 24 h | active
O=C(C1=C[C@@H](C2CC2)C[C@@H](OCCCCO)O1)N1CCN(Cc2ccccc2)CC1 | Clone20 osteoblast Shn3 3'UTR firefly luciferase, 24 h | inactive
CCCC(=O)NC(c1ccc(C(C)C)cc1)c1ccc2cccnc2c1O (stereo unspecified) | Clone20 osteoblast Shn3 3'UTR firefly luciferase, 24 h | active
CC(C)C(=O)NC(c1ccc(Cl)cc1Cl)c1ccc2cccnc2c1O (stereo unspecified) | Clone20 osteoblast Shn3 3'UTR firefly luciferase, 24 h | active
COc1ccc(NS(=O)(=O)c2ccc(N3CCCCC3)c(N)c2)cc1 | Clone20 osteoblast Shn3 3'UTR firefly luciferase, 24 h | active
CC1C(OC(=O)CCC(=O)NC(C)(C)CO)O[C@H]2OC3(C)CC[C@H]4[C@H](C)CCC1C24OO3 (stereo partly specified) | Clone20 osteoblast Shn3 3'UTR firefly luciferase, 24 h | active
O=C(Nc1ccccc1Cc1ccccc1)c1ccccc1NS(=O)(=O)c1ccc(Cl)s1 | Clone20 osteoblast Shn3 3'UTR firefly luciferase, 24 h | active
O=C(/C(=C/c1ccc(Cl)cc1)c1nc2ccccc2[nH]1)c1cccs1 | Clone20 osteoblast Shn3 3'UTR firefly luciferase, 24 h | active
COc1ccc(OC)c(NC(=O)CN(Cc2ccc(F)cc2)C2CCCCC2)c1 | Clone20 osteoblast Shn3 3'UTR firefly luciferase, 24 h | active
CCOc1cc(CNCCc2ccc(S(N)(=O)=O)cc2)ccc1OCc1ccc(Cl)cc1 | Clone20 osteoblast Shn3 3'UTR firefly luciferase, 24 h | active
O=C(c1cc2sccc2n1Cc1ccccc1)N1CCN(c2nc3ccccc3s2)CC1 | Clone20 osteoblast Shn3 3'UTR firefly luciferase, 24 h | active
O=C(c1ccc(S(=O)(=O)c2ccc(F)cc2)c([N+](=O)[O-])c1)N1CCCCCC1 | Clone20 osteoblast Shn3 3'UTR firefly luciferase, 24 h | active
O=C(CN1CCCC1c1cccs1)Nc1cc(S(=O)(=O)N2CCCCC2)ccc1Cl (stereo unspecified) | Clone20 osteoblast Shn3 3'UTR firefly luciferase, 24 h | active
CCCCn1c(CN2CCN(c3ccccc3)CC2)nc2c1c(=O)n(C)c(=O)n2C | Clone20 osteoblast Shn3 3'UTR firefly luciferase, 24 h | active
COC(=O)c1ccc(COC(=O)c2[nH]c(C)c(C(C)=O)c2C)o1 | Clone20 osteoblast Shn3 3'UTR firefly luciferase, 24 h | active
